Target or system: Rat Liver Cytosolic Phosphoenolpyruvate Carboxykinase (Rattus norvegicus, UniProt P07379)
Sequence (P07379 1-622): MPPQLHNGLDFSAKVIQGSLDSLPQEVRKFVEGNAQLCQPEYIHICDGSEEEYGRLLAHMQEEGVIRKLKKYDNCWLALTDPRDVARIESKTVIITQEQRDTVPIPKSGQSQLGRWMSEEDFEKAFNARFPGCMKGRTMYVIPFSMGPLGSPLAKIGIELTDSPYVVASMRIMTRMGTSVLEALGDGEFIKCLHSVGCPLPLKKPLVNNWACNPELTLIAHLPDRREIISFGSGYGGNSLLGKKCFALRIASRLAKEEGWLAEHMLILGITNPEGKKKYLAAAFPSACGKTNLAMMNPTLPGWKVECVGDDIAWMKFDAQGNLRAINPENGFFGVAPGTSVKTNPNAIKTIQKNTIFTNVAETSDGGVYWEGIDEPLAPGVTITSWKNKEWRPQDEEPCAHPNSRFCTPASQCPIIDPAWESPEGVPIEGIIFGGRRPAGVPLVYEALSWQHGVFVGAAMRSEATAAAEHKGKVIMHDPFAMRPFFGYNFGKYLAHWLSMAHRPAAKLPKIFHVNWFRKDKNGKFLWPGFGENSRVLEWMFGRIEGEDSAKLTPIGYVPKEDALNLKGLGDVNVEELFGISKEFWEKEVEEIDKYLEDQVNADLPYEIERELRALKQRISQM
Protocol: Continuous spectrophotometric PEPCK inhibition assay coupled to malate dehydrogenase (preliminary screen, inhibition patterns, Dixon plots)
Reported conditions: read-out: Ki, intercept effect (Kii); noncompetitive; PEP varied substrate
Here the recorded Ki is given for each entry.

[
  {
    "Molecule": "O=S(=O)(O)CS(=O)(=O)O [Compound 31, Methanedisulfonate]",
    "Target or system": "Rat Liver Cytosolic Phosphoenolpyruvate Carboxykinase (Rattus norvegicus, UniProt P07379)",
    "Ki": "168 µM"
  },
  {
    "Molecule": "O=P(O)(O)CP(=O)(O)O [Compound 29, Methanediphosphonate]",
    "Target or system": "Rat Liver Cytosolic Phosphoenolpyruvate Carboxykinase (Rattus norvegicus, UniProt P07379)",
    "Ki": "90 µM"
  }
]

---

Target or system: Rat Liver Cytosolic Phosphoenolpyruvate Carboxykinase (Rattus norvegicus, UniProt P07379)
Sequence (P07379 1-622): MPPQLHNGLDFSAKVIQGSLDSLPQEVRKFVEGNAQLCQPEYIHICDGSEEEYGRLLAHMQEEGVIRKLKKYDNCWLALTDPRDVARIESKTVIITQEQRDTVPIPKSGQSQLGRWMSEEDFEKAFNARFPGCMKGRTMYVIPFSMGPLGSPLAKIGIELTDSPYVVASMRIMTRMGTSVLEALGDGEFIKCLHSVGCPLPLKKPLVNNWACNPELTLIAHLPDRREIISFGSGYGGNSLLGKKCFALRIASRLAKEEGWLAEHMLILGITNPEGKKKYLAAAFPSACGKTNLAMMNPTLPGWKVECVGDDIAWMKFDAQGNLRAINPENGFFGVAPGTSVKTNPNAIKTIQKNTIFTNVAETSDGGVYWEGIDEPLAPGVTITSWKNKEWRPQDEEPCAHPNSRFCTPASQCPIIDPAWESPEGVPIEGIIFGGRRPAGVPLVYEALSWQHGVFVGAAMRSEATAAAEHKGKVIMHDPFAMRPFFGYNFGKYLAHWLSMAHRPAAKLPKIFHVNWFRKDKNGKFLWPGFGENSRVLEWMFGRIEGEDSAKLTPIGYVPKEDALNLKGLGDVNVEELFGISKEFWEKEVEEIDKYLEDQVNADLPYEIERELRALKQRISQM
Protocol: Continuous spectrophotometric PEPCK inhibition assay coupled to malate dehydrogenase (preliminary screen, inhibition patterns, Dixon plots);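 note: PEPCK activity followed continuously via malate dehydrogenase coupling, where OAA reduction consumes NADH, seen as falling absorbance at 340 nm, run at 35 °C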
Reported conditions: from Dixon plots using two PEP concentrations
Structures can show the parent of a compound that is named as a salt.
Quantity name: Ki

[
  {
    "Compound": "O=C(O)/C=C\\C(=O)O [Compound 5, Maleate]",
    "Quantity name": "Ki",
    "Value": "~2000 µM"
  },
  {
    "Compound": "O=S(=O)(O)CCS(=O)(=O)O [Compound 32, 1,2-Ethanedisulfonate]",
    "Quantity name": "Ki",
    "Value": "~3000 µM"
  },
  {
    "Compound": "O=C(O)CCC(=O)O [Compound 3, Succinate]",
    "Quantity name": "Ki",
    "Value": "> 8000 µM"
  }
]

Data provenance: patent US20110008461A1
